assayEndpoint: melting point

Supply measured melting point of Cc1ccc2c(c1)/C(=N/NC(=O)c1ccncc1)C(=O)N2Cc1ccccc1 in your reply.
159 to 162 °C

Supply measured melting point of O=C(N/N=C1\C(=O)N(c2ccccc2)c2ccccc21)c1cc2ccccc2o1 in your reply.
235 to 238 °C

Supply measured melting point of O=C1Nc2ccc([N+](=O)[O-])cc2/C1=N/NC(=O)c1ccncc1 in your reply.
350 to 353 °C

Supply measured melting point of CCn1cc(C(=O)N/N=C2\C(=O)Nc3ccc(F)cc32)c(=O)c2ccc(C)nc21 in your reply.
> 360 °C

Supply measured melting point of O=C1Nc2ccc(Cl)cc2/C1=N/NC(=O)c1ccncc1 in your reply.
345 to 348 °C

Supply measured melting point of O=C1Nc2ccc([N+](=O)[O-])cc2/C1=N/NC(=O)c1cc2ccccc2o1 in your reply.
367 to 369 °C

Supply measured melting point of O=C1Nc2ccc(F)cc2/C1=N/NC(=O)c1ccncc1 in your reply.
346 to 348 °C

Supply measured melting point of Cc1ccc2c(c1)/C(=N/NC(=O)c1ccncc1)C(=O)N2 in your reply.
319 to 322 °C

Supply measured melting point of O=C(N/N=C1\C(=O)N(Cc2ccccc2)c2ccc(F)cc21)c1ccncc1 in your reply.
188 to 192 °C
